target: UniProt:Q9Y3Q0
Sequence (Q9Y3Q0 whole entry): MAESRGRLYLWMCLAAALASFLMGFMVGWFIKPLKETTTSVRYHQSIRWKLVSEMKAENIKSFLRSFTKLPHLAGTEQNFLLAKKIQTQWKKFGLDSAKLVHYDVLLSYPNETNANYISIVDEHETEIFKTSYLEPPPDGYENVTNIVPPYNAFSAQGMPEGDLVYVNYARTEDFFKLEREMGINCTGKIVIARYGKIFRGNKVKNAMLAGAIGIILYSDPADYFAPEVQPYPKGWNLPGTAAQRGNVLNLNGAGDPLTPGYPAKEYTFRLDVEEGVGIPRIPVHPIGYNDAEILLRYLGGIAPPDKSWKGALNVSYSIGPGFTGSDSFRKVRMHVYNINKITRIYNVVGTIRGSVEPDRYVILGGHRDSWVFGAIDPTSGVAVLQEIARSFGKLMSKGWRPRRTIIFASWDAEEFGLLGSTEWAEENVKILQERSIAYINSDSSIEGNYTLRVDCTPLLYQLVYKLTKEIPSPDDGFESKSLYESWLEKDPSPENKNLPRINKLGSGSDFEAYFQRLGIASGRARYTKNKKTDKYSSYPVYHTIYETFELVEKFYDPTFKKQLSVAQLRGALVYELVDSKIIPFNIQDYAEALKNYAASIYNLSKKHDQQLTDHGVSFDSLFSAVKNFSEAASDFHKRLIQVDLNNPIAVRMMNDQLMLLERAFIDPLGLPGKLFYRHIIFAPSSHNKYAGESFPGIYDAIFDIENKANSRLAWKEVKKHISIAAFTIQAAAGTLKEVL
pKi: −log10 of the molar value.
quantity name: pKi

Give the reported pKi for O=C(O)CCC(CP(=O)(O)O)C(=O)O (stereo unspecified) (system: UniProt:Q9Y3Q0).
~9.56

====

molecular target: Glutamate carboxypeptidase 2 (Homo sapiens, UniProt Q04609); assay: Binding affinity to human recombinant PSMA in LNCaP cells assessed as inhibition constant
Sequence (Q04609 whole entry): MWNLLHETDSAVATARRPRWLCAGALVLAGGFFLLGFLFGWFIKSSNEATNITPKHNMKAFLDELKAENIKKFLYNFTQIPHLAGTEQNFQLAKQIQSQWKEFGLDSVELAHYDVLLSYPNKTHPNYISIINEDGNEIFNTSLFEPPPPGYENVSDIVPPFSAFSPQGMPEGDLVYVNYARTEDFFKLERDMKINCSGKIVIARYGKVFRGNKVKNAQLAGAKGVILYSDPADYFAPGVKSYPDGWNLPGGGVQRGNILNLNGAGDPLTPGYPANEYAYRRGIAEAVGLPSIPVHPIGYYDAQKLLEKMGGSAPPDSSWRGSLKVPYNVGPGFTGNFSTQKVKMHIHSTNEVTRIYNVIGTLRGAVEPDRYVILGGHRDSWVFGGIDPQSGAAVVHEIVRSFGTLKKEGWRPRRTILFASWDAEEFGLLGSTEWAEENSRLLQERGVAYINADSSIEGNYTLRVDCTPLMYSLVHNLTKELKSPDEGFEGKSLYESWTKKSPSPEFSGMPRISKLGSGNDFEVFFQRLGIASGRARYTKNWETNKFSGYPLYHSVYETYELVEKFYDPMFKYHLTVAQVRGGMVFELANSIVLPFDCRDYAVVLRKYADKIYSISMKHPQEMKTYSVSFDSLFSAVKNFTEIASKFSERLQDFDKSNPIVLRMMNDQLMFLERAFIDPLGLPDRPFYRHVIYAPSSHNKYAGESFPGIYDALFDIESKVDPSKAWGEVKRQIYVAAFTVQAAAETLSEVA
quantity name: Ki
Please don't drop the unit; write it after the number.

Value lookup for Ki; key = `NCCCC[C@H](NC(=O)N[C@@H](CCC(=O)O)C(=O)O)C(=O)O`
12 nM

====

Target: N-acetylaspartylglutamate synthase A (Homo sapiens, UniProt Q8IXN7)
Sequence (Q8IXN7 whole entry): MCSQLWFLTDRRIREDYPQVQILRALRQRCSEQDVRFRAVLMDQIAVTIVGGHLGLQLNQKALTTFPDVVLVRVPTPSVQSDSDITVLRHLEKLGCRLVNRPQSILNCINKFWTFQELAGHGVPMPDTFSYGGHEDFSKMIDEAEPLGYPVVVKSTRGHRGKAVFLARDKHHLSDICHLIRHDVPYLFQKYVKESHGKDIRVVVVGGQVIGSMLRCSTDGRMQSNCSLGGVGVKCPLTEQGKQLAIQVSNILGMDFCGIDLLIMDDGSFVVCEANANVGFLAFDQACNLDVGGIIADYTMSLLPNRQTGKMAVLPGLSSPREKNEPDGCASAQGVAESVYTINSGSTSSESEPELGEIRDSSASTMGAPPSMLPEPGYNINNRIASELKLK
quantity name: pKi
On this scale, pKi is minus log10 of a concentration expressed in M (mol/L).

Given `O=C(O)CC[C@H](NC(=O)N[C@@H](CCC(=O)O)C(=O)O)C(=O)O` , state its recorded pKi.
8.10

====

molecular target: Glutamate carboxypeptidase 2 (Homo sapiens); test: Inhibition of human recombinant PSMA
quantity name: IC50 (nM)
Dear colleague, please return just the value in nM, with no unit written.

Consider the molecule shown here: `CSC[C@@H](NC(=O)N[C@H](CCC(=O)O)C(=O)O)C(=O)O` What is its recorded IC50?
15.3
